- testedSystem: pre-existing anti-VH ADA in human serum
- assayExplanation: ADA confirmation assay (MSD): 10 ug/mL test material against labelled DOM1H-131-206, mean of 10 sera
quantityKind: Mean % inhibition of signal in confirmation assay (%)
Value expressed in %; do not type the unit.

Problem: Mean % inhibition of signal in confirmation assay lookup needed for DOM1H-131-206 P14E (protein, name in Kabat numbering) VH: EVQLLESGGGLVQEGGSLRLSCAASGFTFAHETMVWVRQAPGKGLEWVSHIPPDGQDPFYADSVKGRFTISRDNSKNTLYLQMNSLRAEDTAVYHCALLPKRGPWFDYWGQGTLVTVSS , thanks.
Result: 47.2

Problem: Subsequent entry: DOM1H-131-206 S112A (protein, name in Kabat numbering) VH: EVQLLESGGGLVQPGGSLRLSCAASGFTFAHETMVWVRQAPGKGLEWVSHIPPDGQDPFYADSVKGRFTISRDNSKNTLYLQMNSLRAEDTAVYHCALLPKRGPWFDYWGQGTLVTVAS
Result: 77.1

Problem: Similarly, DOM1H-131-206 P14A + C-terminal ASTKG (protein) VH: EVQLLESGGGLVQAGGSLRLSCAASGFTFAHETMVWVRQAPGKGLEWVSHIPPDGQDPFYADSVKGRFTISRDNSKNTLYLQMNSLRAEDTAVYHCALLPKRGPWFDYWGQGTLVTVSSASTKG ?
Result: 11.9

Problem: Param item: DOM1H-131-206 with a C-terminal alanine extension (other, VH dAb variant) VH: EVQLLESGGGLVQPGGSLRLSCAASGFTFAHETMVWVRQAPGKGLEWVSHIPPDGQDPFYADSVKGRFTISRDNSKNTLYLQMNSLRAEDTAVYHCALLPKRGPWFDYWGQGTLVTVSSA
Result: 1.12
